Tested on: LPS-induced microglia activation
TEST_SUMMARY: Image-based assay of LPS-induced microglia activation (HTS and dose response)
Assay type: cell-based, rat
APPLIED_CONDITIONS: Rattus norvegicus, Microglia, dose response, LPS-induced microglia activation; read-out: LPS IC50
Structures can show the parent of a compound that is named as a salt.
RECORDED_ENDPOINT: IC50

COMPOUND	RECORDED_ENDPOINT	VALUE
[H]/N=C(/NCCCCC)N/N=C/c1c[nH]c2ccc(OC)cc12 [Tegaserod maleate, reference compound]	IC50	19 µM
CCCCC(=O)O[C@]1(C(=O)CO)[C@@H](C)C[C@H]2[C@@H]3CCC4=CC(=O)C=C[C@]4(C)[C@@]3(F)[C@@H](O)C[C@@]21C [Betamethasone valerate, reference compound]	IC50	> 20 µM
CC(=O)OCC(=O)[C@@]1(O)CC[C@H]2[C@@H]3CCC4=CC(=O)C=C[C@]4(C)[C@@]3(Cl)[C@@H](Cl)C[C@@]21C [Dichlorisone acetate, reference compound]	IC50	4 µM
C=C(CC)C(=O)c1ccc(OCC(=O)O)c(Cl)c1Cl [Ethacrynic acid, reference compound]	IC50	> 20 µM
NCCc1cc[nH]n1 [Betazole hydrochloride, reference compound]	IC50	> 20 µM
CC(=O)O[C@]1(C(C)=O)CC[C@H]2[C@@H]3C=C(Cl)C4=CC(=O)CC[C@]4(C)[C@H]3CC[C@@]21C [Chlormadinone acetate, reference compound]	IC50	> 20 µM
